assay: protein stability index of a GFP-peptide fusion (yeast GPS) (PSI 1-4); higher = more stable; sorted into four equal gates, so the index is relative within each strain; conditions: ubr1∆
What protein stability index was measured for each of the following?

Q: Need protein stability index of INAEEIVDFTLPPPPPP [PRP8] , thanks.
A: 3.04

Q: Could you do the same for VLQYSDWESDLHIHLNQ [YDL116W/NUP84] , please?
A: 3.04

Q: Could you do the same for RIKEMYWKLWIDEPFNL [FAS1] , please?
A: 2.91

Q: Could you do the same for TQVFNILLQHKEKLTVQ [POP1] , please?
A: 2.94

Q: Could you do the same for PFSYLIDETMMDKPLNF [SRB5] , please?
A: 2.97

Q: Could you do the same for NESWKSSFEKFNDSQAI [SRP72] , please?
A: 3.02

Q: Could you do the same for LADWRIRPLSKPMTAYA [RRP6] , please?
A: 2.98

Q: Could you do the same for MVSTPELKKYMDKKILL [SMX2] , please?
A: 3

Q: Could you do the same for INLRKVAEKMNGCSGAD [RPT6] , please?
A: 3.07

Q: Could you do the same for PQFDSTQPKSSSSMDMQ [SSN3] , please?
A: 3.02

Q: Could you do the same for QPSKVSSNVQQPQQQLG [RTT102] , please?
A: 3.03

----------
test: protein stability index of a GFP-peptide fusion (yeast GPS) (PSI 1-4); higher = more stable; sorted into four equal gates, so the index is relative within each strain; settings: doa10∆
quantity measured: protein stability index
// return just the number, without any unit appended

Q: Need protein stability index of RFSPDEDFEHNNLSSMN [MCD1] , thanks.
A: 2.69

Q: Could you do the same for NLGEYESAVKYALAAKD [RPN2] , please?
A: 2.42

Q: Could you do the same for EHAKWGPAAAIEFEYDP [RPB3] , please?
A: 2.54

Q: Could you do the same for YGLGLIYAGFGRDTTDY [RPN2] , please?
A: 3.37

Q: Could you do the same for QQQQMQQQQQQQQQQQN [SSN2] , please?
A: 2.31

Q: Could you do the same for LIFGTIASKMSLAPEAD [RPT3] , please?
A: 2.66

Q: Could you do the same for LSRKPSDNKKRSGSNAA [RPC82] , please?
A: 2.92

Q: Could you do the same for GQKLLAIKYGYEDSGST [SRB4] , please?
A: 2.83

Q: Could you do the same for LRHMPLASIPDIFITPT [SSN2] , please?
A: 1.78

----------
What protein stability index was measured for each of the following?
assay: protein stability index of a GFP-peptide fusion (yeast GPS) (PSI 1-4); higher = more stable; sorted into four equal gates, so the index is relative within each strain; conditions: san1∆
// return just the number, without any unit appended

Q: Need protein stability index of NPVALEQKLVDLLKFEN [BRR2] , thanks.
A: 2.3

Q: Could you do the same for EPDRDENWIHVSCLSFM [LIN1] , please?
A: 3.08

Q: Could you do the same for IFSYGPHIQKMLSILEI [POP6] , please?
A: 2.56

Q: Could you do the same for ALIKFMEYHISNTDETK [FAS2] , please?
A: 2.59

Q: Could you do the same for STGDYTFTIQLLKLTKV [YML103C/NUP188] , please?
A: 2.16

Q: Could you do the same for QFMKRFPMPYENEEFIT [ECM29] , please?
A: 2.85

Q: Could you do the same for GLLKRGDTVRILDTSQS [SNU114] , please?
A: 3.15

Q: Could you do the same for GWFHSHPGYDCWLSNID [RRI1] , please?
A: 2.77

Q: Could you do the same for MSVEPVVVIDGKGHLVG [RPL16A] , please?
A: 2.63

Q: Could you do the same for MSRSLANGIINVKEITE [SMC3] , please?
A: 2.77

Q: Could you do the same for LQNKSFKSVLPIVLLNT [UBP6] , please?
A: 1.87

Q: Could you do the same for SDSYKVSLQNFSSSVSL [RRP40] , please?
A: 2.02

Q: Could you do the same for KDRISHEVVQDDSFSLL [PCI8] , please?
A: 3.19

Q: Could you do the same for GIGGDHAKFSPVSTASY [RPC40] , please?
A: 2.28

Q: Could you do the same for ISTSDVTRIINSSEIQS [RPL4A] , please?
A: 2.34

Q: Could you do the same for KITSPIRSVALNDSNVK [RRP42] , please?
A: 2.59

Q: Could you do the same for NVLNQINQIFSPEEQRS [GAL11] , please?
A: 2.91

Q: Could you do the same for GLNNDFLFQNINFERID [GRR1] , please?
A: 2.19

Q: Could you do the same for DKKLLRRLLNLYNDNNK [SWI1] , please?
A: 2.57

----------
assay: protein stability index of a GFP-peptide fusion (yeast GPS) (PSI 1-4); higher = more stable; sorted into four equal gates, so the index is relative within each strain; details: ubr1∆
quantity measured: protein stability index
// return just the number, without any unit appended

Q: Need protein stability index of DSVEFIFQAKRNSNPEN [RPN10] , thanks.
A: 2.69

Q: Could you do the same for LELAGMDALYEKIWFAI [SIR3] , please?
A: 1.15

Q: Could you do the same for VTLFQMAILLLYNDADV [CDC53] , please?
A: 1.96

Q: Could you do the same for PQVLINRDPVKHAEFDL [SIR2] , please?
A: 2.79

Q: Could you do the same for ASGFGFGGSQPNSGTAT [YGR119C/NUP57] , please?
A: 2.87

Q: Could you do the same for GLFPFESYKPSVQLPDM [SWI3] , please?
A: 2.81

Q: Could you do the same for LALEIIVRPAKGVATTR [RRP46] , please?
A: 2.25

Q: Could you do the same for TSMNGVHNTVAAGNASS [SNF5] , please?
A: 2.76

Q: Could you do the same for TFTQLVSSSLYERRFGP [PUP3] , please?
A: 2.94

Q: Could you do the same for KIKPYVRSFSKALDELK [LRP1] , please?
A: 2.68

Q: Could you do the same for VIRMVVLTAAGVERLIF [PRE3] , please?
A: 3.17

Q: Could you do the same for HSISEAENMLEELRGQQ [SMC4] , please?
A: 3.2

Q: Could you do the same for DDALHAKKLPNGNWEVG [DIS3] , please?
A: 3.05

Q: Could you do the same for KPFRQTKFKVRGSSSLY [RPL38] , please?
A: 3

Q: Could you do the same for TSKPVFSFGAATPSAKE [YLR335W/NUP2] , please?
A: 3.06

----------
experiment: protein stability index of a GFP-peptide fusion (yeast GPS) (PSI 1-4); higher = more stable; sorted into four equal gates, so the index is relative within each strain; details: doa10∆
quantity measured: protein stability index
// return just the number, without any unit appended

Q: Need protein stability index of INLRKVAEKMNGCSGAD [RPT6] , thanks.
A: 2.45

Q: Could you do the same for TIVLSLNVKCTRNPDAP [RPC40] , please?
A: 1.66

Q: Could you do the same for KGSSLASAASEAIRDPK [SSN8] , please?
A: 2.43

Q: Could you do the same for LICQNNLNAFVDFSKYN [SRP72] , please?
A: 3.1

Q: Could you do the same for TRAGGLGINLVTADTVI [ISW2] , please?
A: 2.19

Q: Could you do the same for TVFFLIRVAETRGGASA [YJL039C/NUP192] , please?
A: 2.18

Q: Could you do the same for GQRTAYHSKRDASTPLR [RPB2] , please?
A: 3.32

----------
What protein stability index was measured for each of the following?
experiment: protein stability index of a GFP-peptide fusion (yeast GPS) (PSI 1-4); higher = more stable; sorted into four equal gates, so the index is relative within each strain; conditions: pdr5∆
// return just the number, without any unit appended

Q: Need protein stability index of IGGMRVDENGDPIWQHQ [RET1] , thanks.
A: 3.38

Q: Could you do the same for SKQIFTHPKDTFYITRE [ARP9] , please?
A: 3.09

Q: Could you do the same for IYSSDAQGDPNLEPLIA [NUT1] , please?
A: 3.12

Q: Could you do the same for MNMFGGGMGGGMGGGMP [SRP54] , please?
A: 2.43

Q: Could you do the same for MLLLNIFISSDHEFVLI [YMR129W/POM152] , please?
A: 1.28

Q: Could you do the same for KFRSSILRKSFDFLMNM [RPN2] , please?
A: 2.4

Q: Could you do the same for KNPLFSYVEPVLVASAK [RPL31A] , please?
A: 2.57

Q: Could you do the same for ETEKFALERNWPIVNSK [RPN12] , please?
A: 3.25

Q: Could you do the same for AVVQTVKGLLNTYKRLV [YJL039C/NUP192] , please?
A: 2.37

Q: Could you do the same for PAEHPFISAARYKPKSH [RPC37] , please?
A: 3.04

Q: Could you do the same for SKSTSMKLSMPPEVTSS [POP1] , please?
A: 2.59

Q: Could you do the same for FISELCSIEPIAAKLIN [YML103C/NUP188] , please?
A: 1.34

Q: Could you do the same for SSLRNQELLNAETLCFT [RPN3] , please?
A: 3.02

Q: Could you do the same for VHDLNKYKSNTNNMEKI [SMC2] , please?
A: 3.58

Q: Could you do the same for LGRLNKLRKIAISKKNK [LIN1] , please?
A: 1.74

Q: Could you do the same for KKEEKLNIGKNFAHSDS [SIR4] , please?
A: 2.97

Q: Could you do the same for KSVKFVQGLLQNAAANA [RPL17A] , please?
A: 2.65

Q: Could you do the same for QLNCIDTQFTKLLDDNP [SRB8] , please?
A: 2.7

Q: Could you do the same for NVDNQTSDLVKSLGLKL [RPS17A] , please?
A: 3.29

Q: Could you do the same for EDHVEDHRKRKKSKIQL [LIN1] , please?
A: 3.25

Q: Could you do the same for KLLKEKVKLFHGILDDL [MED2] , please?
A: 2.93

Q: Could you do the same for AKKTSTSVDGKKRSKVR [HTB2] , please?
A: 2.98
